Test system: ISC-enriched organoids
Test protocol: Primary screen, 384-well 2.5-D organoid differentiation (ENR+CD, 6 days, Target Selective Inhibitor Library, vs whole-plate median): ATP (CellTiter-Glo 3D, CTG)
Condition info: Dose 0.40 uM; primary screen, vs plate median
Value kind: Dose.FC.CTG (log 2 fold change)
Numbers only.

Examples with their reported Dose.FC.CTG (log 2 fold change) follow.
Molecule: Nc1ccc(C(=O)[O-])c(O)c1.[Na+] [Sodium 4-Aminosalicylate]
Dose.FC.CTG (log 2 fold change): 0.204
--
Molecule: COc1c(C)c(C(=O)c2ccc(N)c(C(=O)[O-])c2)n2ccccc12.[Na+] [SSR128129E]
Dose.FC.CTG (log 2 fold change): 0.228
--
Molecule: N#CSc1cc(SC#N)c(N)nc1N
Dose.FC.CTG (log 2 fold change): 0.111
--
Molecule: O=C(Nc1cc(C(F)(F)F)ccc1N1CCCCC1)c1ccncc1
Dose.FC.CTG (log 2 fold change): 0.445
--
Molecule: Oc1ccc(Nc2nc(-c3ccc(Cl)cc3)cs2)cc1
Dose.FC.CTG (log 2 fold change): 0.222
--
Molecule: C[S+]([O-])c1ccc(-c2nc(-c3ccc(F)cc3)c(-c3ccncc3)[nH]2)cc1 (stereo not drawn)
Dose.FC.CTG (log 2 fold change): 0.149
--
Molecule: CC(C)[C@H](O)C(=O)N[C@@H](C)C(=O)N[C@@H]1C(=O)N(C)CCc2ccccc21
Dose.FC.CTG (log 2 fold change): −0.207
--
Molecule: Cc1cn([C@H]2C=C[C@@H](CO)O2)c(=O)[nH]c1=O
Dose.FC.CTG (log 2 fold change): 0.147

Hi there! I need Dose.FC.CTG (log 2 fold change) for each item below, if you can.
1. CCOC(=O)c1ccc(N2NC(=O)/C(=C/c3ccc([N+](=O)[O-])o3)C2=O)cc1
2. Cc1ccc(S(=O)(=O)Cc2nc(-c3ccc(C(=O)NCc4cccnc4)cc3)oc2C)cc1
3. COc1cc(OC)c(/C=C/S(=O)(=O)Cc2ccc(OC)c(NCC(=O)O)c2)c(OC)c1
4. Cc1ccc(-n2nccn2)c(C(=O)N2CCN(c3nc4cc(Cl)ccc4o3)CC[C@H]2C)c1

Result string:
1. 0.319
2. −1.401
3. −1.285
4. 0.255
